System: Staphylococcus aureus
test.description: In vitro antibacterial activity of compound was measured on Staphylococcus aureus 3004(MRSA)
Assay type: functional
assay.endpoint: MIC
Your answer should be a number followed by the unit of measure.

C[C@@H](O)[C@H]1C(=O)N2C(C(=O)O)=C(S[C@@H]3CN[C@H](Cc4cc[n+](CC(N)=O)n4C)C3)[C@H](C)[C@H]12.[Cl-] : 6.25 mg/L

List reported MIC for each of these molecules:
1. C[C@@H](O)[C@H]1C(=O)N2C(C(=O)O)=C(S[C@@H]3CN[C@H](Cc4cn(C)[n+](CCO)c4)C3)[C@H](C)[C@H]12.[Cl-]
2. C[C@@H](O)[C@H]1C(=O)N2C(C(=O)O)=C(S[C@@H]3CN[C@H](Cc4cc[n+](C)n4C)C3)[C@H](C)[C@H]12.[Cl-]
3. C[C@@H](O)[C@H]1C(=O)N2C(C(=O)O)=C(S[C@@H]3CN[C@H](Cc4n(C)nc[n+]4C)C3)[C@H](C)[C@H]12.[Cl-]
4. C[C@@H](O)[C@H]1C(=O)N2C(C(=O)O)=C(S[C@@H]3CN[C@H](Cc4c[n+](CCO)nn4C)C3)[C@H](C)[C@H]12.[Cl-]
5. C[C@@H](O)[C@H]1C(=O)N2C(C(=O)O)=C(S[C@@H]3CN[C@H](Cc4cn(C)[n+](C)c4)C3)[C@H](C)[C@H]12.[Cl-]
6. C[C@@H](O)[C@H]1C(=O)N2C(C(=O)O)=C(S[C@@H]3CN[C@H](Cc4cc[n+](CCO)n4C)C3)[C@H](C)[C@H]12.[Cl-]

12.5 mg/L
6.25 mg/L
12.5 mg/L
25 mg/L
3.13 mg/L
6.25 mg/L

I'm hoping you can list MIC for every molecule here, please.
1. C[C@@H](O)[C@H]1C(=O)N2C(C(=O)O)=C(S[C@@H]3CN[C@H](Cc4cn(C)[n+](C)c4CO)C3)[C@H](C)[C@H]12.[Cl-]
2. C[C@@H](O)[C@H]1C(=O)N2C(C(=O)O)=C(S[C@@H]3CN[C@H](Cc4c(CO)c[n+](C)n4C)C3)[C@H](C)[C@H]12.[Cl-]
3. C[C@@H](O)[C@H]1C(=O)N2C(C(=O)O)=C(S[C@@H]3CN[C@H](Cc4cn(C)[n+](CC(N)=O)c4)C3)[C@H](C)[C@H]12.[Cl-]
4. C[C@@H](O)[C@H]1C(=O)N2C(C(=O)O)=C(S[C@@H]3CN[C@H](Cc4c[n+](C)cn4C)C3)[C@H](C)[C@H]12.[Cl-]
5. C[C@@H](O)[C@H]1C(=O)N2C(C(=O)O)=C(S[C@@H]3CN[C@H](Cc4c[n+](CC(N)=O)cn4C)C3)[C@H](C)[C@H]12.[Cl-]

6.25 mg/L
25 mg/L
6.25 mg/L
6.25 mg/L
12.5 mg/L
